Reported Activity values follow for various molecules
Test system: H4
Experiment: Decrease in FYVE-RFP+ vesicle intensity per cell in human H4 cells after 2 hrs relative to control
Format: functional
Set-up: concentration or dose not given beside the values

Molecule	Activity / %
COC1=C2C[C@@H](C)C[C@H](OC)[C@H](O)[C@@H](C)/C=C(\C)[C@H](OC(N)=O)[C@@H](OC)/C=C\C=C(/C)C(=O)NC(=CC1=O)C2=O [GELDANAMYCIN]	35.18
O=c1cc(N2CCOCC2)oc2c(-c3ccccc3)cccc12 [LY-294002]	24.99
CC[C@@]1([C@@H]2O[C@@H]([C@H]3O[C@@](O)(CO)[C@H](C)C[C@@H]3C)C[C@@H]2C)CC[C@H]([C@]2(C)CC[C@]3(C[C@H](O)[C@@H](C)[C@@H]([C@@H](C)[C@@H](OC)[C@H](C)C(=O)O)O3)O2)O1 [MONENSIN]	81.22

---

Tested on: H4
Assay: Decrease in FYVE-RFP+ vesicle intensity per cell in human H4 cells after 2 hrs relative to control
Type: functional
Design: concentration or dose not given beside the values
Reported Activity values follow for various compounds
Assay Readout: Activity (%)

> print(dat)
                               given.smiles  tested.target    val
1  CC(=O)C1=C(O)[C@@H]2[C@H]3c4c[nH]c5cccc(c45)C[C@H]3C(C)(C)N2C1=O             H4  41.44
2  O[C@H]1[C@H](O)[C@@H](O)CN2CC[C@H](O)[C@H]12             H4  37.35
3  CCCC[C@@H](C=O)NC(=O)[C@H](CC(C)C)NC(=O)OCc1ccccc1             H4  58.44
4         O=C1Nc2ccccc2/C1=C1/Nc2ccccc2C1=O             H4  73.16

---

System: H4
Assay: Increase in long-lived protein degradation in human H4 cells after 1 hr relative to control
Type: functional
Set-up: concentration or dose not given beside the values
Assign class by Activity: not lower than 90% means yes; lower than 90% means no.

Compound	Classification
COC1=C2C[C@@H](C)C[C@H](OC)[C@H](O)[C@@H](C)/C=C(\C)[C@H](OC(N)=O)[C@@H](OC)/C=C\C=C(/C)C(=O)NC(=CC1=O)C2=O	no
O=C(Nc1ccccc1)c1cc([N+](=O)[O-])ccc1Cl	yes
CC(C)[C@@H](O)CC[C@@H](C)[C@H]1CC[C@H]2[C@@H]3CC=C4C[C@@H](O)CC[C@]4(C)[C@H]3CC[C@]12C	yes
OCCN(CCO)c1nc(N2CCCCC2)c2nc(N(CCO)CCO)nc(N3CCCCC3)c2n1	no
COc1ccc2c(c[n+](C)c3c4cc5c(cc4ccc23)OCO5)c1OC.[Cl-] [CHELERYTHRINE CHLORIDE]	yes
CN(CCc1ccc(Cl)c(Cl)c1)CC(O)COc1ccc(NS(C)(=O)=O)cc1 (stereo unspecified)	yes
O=C(/C=C/c1ccc(O)c(O)c1)OCCc1ccccc1	yes
CN1CCN(C2=Nc3cc(Cl)ccc3Nc3ccccc32)CC1	yes
COC(=O)C1=C(C)NC(C)=C(C(=O)OCCN(C)Cc2ccccc2)C1c1cccc([N+](=O)[O-])c1 (stereo unspecified)	no
O=C1NCN(c2ccccc2)C12CCN(CCCC(c1ccc(F)cc1)c1ccc(F)cc1)CC2	yes
CC1(C)[C@@H](O)C[C@H]2[C@](C)(O)[C@@H]3CC[C@@H]4[C@@H](O)[C@@]3(C[C@@H](O)[C@@]21O)C[C@@]4(C)O	yes
NCCNS(=O)(=O)c1cccc2cnccc12	yes
CC1(C)C(C=C(Cl)Cl)C1C(=O)OC(C#N)c1cccc(Oc2ccccc2)c1 (stereo unspecified)	yes
COC(=O)C1=C(C)NC(C)=C([N+](=O)[O-])C1c1ccccc1C(F)(F)F (stereo unspecified)	yes

---

System: H4
Experiment: Decrease in FYVE-RFP+ vesicle intensity per cell in human H4 cells after 2 hrs relative to control
Format: functional
Set-up: concentration or dose not given beside the values

Compound	Activity
CC1(C)C(C=C(Cl)Cl)C1C(=O)OC(C#N)c1cccc(Oc2ccccc2)c1 (stereo not drawn) [ALPHA-CYPERMETHRIN]	33.75%
CC1(C)[C@@H](O)C[C@H]2[C@](C)(O)[C@@H]3CC[C@@H]4[C@@H](O)[C@@]3(C[C@@H](O)[C@@]21O)C[C@@]4(C)O [GRAYANOTOXIN III]	45.44%
CC(C)(c1ccc(OCC2CO2)cc1)c1ccc(OCC2CO2)cc1 (configuration not stated)	44.65%
CC(C)COCC(CN(Cc1ccccc1)c1ccccc1)N1CCCC1 (configuration not stated) [BEPRIDIL]	65.27%
COc1cc2c3cc1Oc1c(OC)c(OC)cc4c1[C@@H](Cc1ccc(OC(=O)c5ccc([N+](=O)[O-])cc5)c(c1)Oc1ccc(cc1)C[C@@H]3N(C)CC2)N(C)CC4 [E6 BERBAMINE]	59.73%
COc1ccc2c(c[n+](C)c3c4cc5c(cc4ccc23)OCO5)c1OC.[Cl-] [CHELERYTHRINE CHLORIDE]	30.83%
CC(C)[C@@H](O)CC[C@@H](C)[C@H]1CC[C@H]2[C@@H]3CC=C4C[C@@H](O)CC[C@]4(C)[C@H]3CC[C@]12C	38.02%

---

Test system: H4
Test: Increase in long-lived protein degradation in human H4 cells after 1 hr relative to control
Assay type: functional
Reported Activity values follow for various molecules
Assay Readout: Activity (%)

Given Smiles	Assay Readout	Units Of Measure	Val
O=C1Nc2ccccc2/C1=C1/Nc2ccccc2C1=O	Activity	%	105.91
C=C(C)[C@H]1O[C@H]2CC[C@@]3(C)[C@@](O)(CC[C@H]4[C@@H]5OC(C)(C)[C@H]6C[C@@H]7C(=C)Cc8c(Cl)cc9[nH]c(c5c9c8[C@@]76O)[C@@]43C)[C@@]23O[C@H]3[C@H]1O	Activity	%	92.88
CCCCc1oc2ccccc2c1C(=O)c1cc(I)c(OCCN(CC)CC)c(I)c1	Activity	%	101.32

---

Test system: H4
Assay: Decrease in FYVE-RFP+ vesicle intensity per cell in human H4 cells after 8 hrs relative to control
Format: functional
Parameters: concentration or dose not given beside the values
Assay Readout: Activity

> print(dat)
                               given.smiles     val
1  CC1(C)[C@@H](O)C[C@H]2[C@](C)(O)[C@@H]3CC[C@@H]4[C@@H](O)[C@@]3(C[C@@H](O)[C@@]21O)C[C@@]4(C)O  39.83%
2  COC1=C2C[C@@H](C)C[C@H](OC)[C@H](O)[C@@H](C)/C=C(\C)[C@H](OC(N)=O)[C@@H](OC)/C=C\C=C(/C)C(=O)NC(=CC1=O)C2=O  39.26%
3  CCOC(=O)[C@H]1O[C@@H]1C(=O)N[C@@H](CC(C)C)C(=O)NCCC(C)C  39.61%

Recorded values, source ChEMBL document CHEMBL1145471.
